assay: In vivo biodistribution in mice; design: species or system normal CD-1 male mice; conditions: iv, 2 min post injection
Experimental Endpoint: Biodistribution: Blood (% dose/g)

| Compound | Unit Spec | Observed |
| --- | --- | --- |
| O=C([O-])CN(CCN(CC(=O)[O-])Cc1cc(CCC(=O)O)ccc1[O-])Cc1cc(CCC(=O)O)ccc1[O-].[68Ga+3] [[^68Ga]HBED-CC, reference compound] | % dose/g | 7.66 |
| O=C([O-])CN(CCN(CC(=O)[O-])Cc1cc(CCC(=O)N[C@@H](CC(=O)O)C(=O)O)ccc1[O-])Cc1cc(CCC(=O)NC(P(=O)(O)O)P(=O)(O)O)ccc1[O-].[68Ga+3] [[^68Ga]1e] | % dose/g | 8.31 |
| O=C([O-])CN(CCN(CC(=O)[O-])Cc1cc(CCC(=O)NC(P(=O)(O)O)P(=O)(O)O)ccc1[O-])Cc1cc(CCC(=O)NCCNC(=O)CN2CCN(CC(=O)O)CCN(CC(=O)O)CCN(CC(=O)O)CC2)ccc1[O-].[68Ga+3] [[^68Ga]1h] | % dose/g | 9.69 |
| O=C([O-])CN(CCN(CC(=O)[O-])Cc1cc(CCC(=O)NC(P(=O)(O)O)P(=O)(O)O)ccc1[O-])Cc1cc(CCC(=O)O)ccc1[O-].[68Ga+3] [[^68Ga]1a] | % dose/g | 9.39 |
| O=C([O-])CN(CCN(CC(=O)[O-])Cc1cc(CCC(=O)NC(P(=O)(O)O)P(=O)(O)O)ccc1[O-])Cc1cc(CCC(=O)NCCCCCC(=O)NCCCC[C@H](NC(=O)N[C@@H](CCC(=O)O)C(=O)O)C(=O)O)ccc1[O-].[68Ga+3] [[^68Ga]1g] | % dose/g | 8.34 |
| O=C(O)CN1CCN(CC(=O)O)CCN(CC(=O)NC(P(=O)(O)O)P(=O)(O)O)CCN(CC(=O)O)CC1.[68Ga] [[^68Ga]BPAMD, reference compound] | % dose/g | 9.45 |

---

assay: In vivo biodistribution in mice; design: species or system normal CD-1 male mice; conditions: iv, 60 min (1 hr) post injection
As shown below, each of these molecules has a reported Biodistribution: Spleen value.
Experimental Endpoint: Biodistribution: Spleen

| Molecule | Observed |
| --- | --- |
| O=C(O)CN1CCN(CC(=O)O)CCN(CC(=O)NC(P(=O)(O)O)P(=O)(O)O)CCN(CC(=O)O)CC1.[68Ga] [[^68Ga]BPAMD, reference compound] | 0.21 ± 0.02 % dose/g |
| O=C([O-])CN(CCN(CC(=O)[O-])Cc1cc(CCC(=O)NC(P(=O)(O)O)P(=O)(O)O)ccc1[O-])Cc1cc(CCC(=O)NC2C(O)OC(CO)C(O)C2O)ccc1[O-].[68Ga+3] (stereo not drawn) [[^68Ga]1b] | 0.66 ± 0.15 % dose/g |
| [18F-].[Na+] [[^18F]NaF, reference compound] | 0.12 ± 0.02 % dose/g |
| C[C@H](NC(=O)CCc1ccc([O-])c(CN(CCN(CC(=O)[O-])Cc2cc(CCC(=O)NC(P(=O)(O)O)P(=O)(O)O)ccc2[O-])CC(=O)[O-])c1)C(=O)O.[68Ga+3] [[^68Ga]1d] | 0.06 ± 0.00 % dose/g |
| O=C([O-])CN(CCN(CC(=O)[O-])Cc1cc(CCC(=O)NC(P(=O)(O)O)P(=O)(O)O)ccc1[O-])Cc1cc(CCC(=O)NC(P(=O)(O)O)P(=O)(O)O)ccc1[O-].[68Ga+3] [[^68Ga]2] | 0.43 ± 0.05 % dose/g |
| O=C([O-])CN(CCN(CC(=O)[O-])Cc1cc(CCC(=O)NC(P(=O)(O)O)P(=O)(O)O)ccc1[O-])Cc1cc(CCC(=O)O)ccc1[O-].[68Ga+3] [[^68Ga]1a] | 0.10 ± 0.02 % dose/g |
